method-notes: Thermal stability: 4-Epi-Tigecycline and total impurities at ambient conditions and after 7 days at 80° C.
Assay type: physicochemical
setup-conditions: ambient conditions
Listing of entries alongside the reported 4-EPI-TIGECYCLINE AT AMBIENT CONDITIONS.
# print the numeric value only

* CN(C)c1cc(NC(=O)CNC(C)(C)C)c(O)c2c1C[C@H]1C[C@H]3[C@H](N(C)C)C(O)=C(C(N)=O)C(=O)[C@@]3(O)C(O)=C1C2=O [WO 2006/128150 III] | 0.16
* CN(C)c1cc(NC(=O)CNC(C)(C)C)c(O)c2c1C[C@H]1C[C@H]3[C@H](N(C)C)C(O)=C(C(N)=O)C(=O)[C@@]3(O)C(O)=C1C2=O [WO 2006/128150 I] | 0.36
* CN(C)c1cc(NC(=O)CNC(C)(C)C)c(O)c2c1C[C@H]1C[C@H]3[C@H](N(C)C)C(O)=C(C(N)=O)C(=O)[C@@]3(O)C(O)=C1C2=O [WO 2006/128150 IV] | 0.23

Please find the next compound below.
[ask] So what's the measured 4-EPI-TIGECYCLINE AT AMBIENT CONDITIONS for this one? CN(C)c1cc(NC(=O)CNC(C)(C)C)c(O)c2c1C[C@H]1C[C@H]3[C@H](N(C)C)C(O)=C(C(N)=O)C(=O)[C@@]3(O)C(O)=C1C2=O [WO 2006/128150 II]
[reply] 1.04
